system: HT29; assay: MTT cell viability assay; format: cell-based; details: Homo sapiens, HT-29; HT29, 72 h; read-out: IC50
For each entry below, report its IC50 value.
Numbers only, in µM.

Input Smiles	Measured Number
COc1cccc(/C=C2\CCC/C(=C\c3cccc(OC)c3OC)C2=O)c1OC	8.2

Okay, next one:
[Q] Requested read-out: IC50. Entry: COc1cc(/C=C/C(=O)CC(=O)/C=C/c2ccc(O)c(OC)c2)ccc1O
[A] 20.7

###

tested on: SW620; assay: MTT cell viability assay; type: cell-based; details: Homo sapiens, SW-620; SW620, 72 h; read-out: IC50
For each entry below, report its pIC50 value.
Give bare numbers, as −log10 of the molar value.

Input Smiles	Observation Type	Measured Number
COc1cc(/C=C/C(=O)CC(=O)/C=C/c2ccc(O)c(OC)c2)ccc1O	pIC50	4.81

Okay, next one:
[Q] Request - read-out pIC50 | tested on SW620 | compound COc1cccc(/C=C2\CCC/C(=C\c3cccc(OC)c3OC)C2=O)c1OC
[A] 5.30

###

For each entry below, report its IC50 value.
test system: Splenocyctes; test: MTT cell viability assay on normal cells; type: cell-based; settings: Splenocyte; splenocytes, 48 h; read-out: IC50

Input Smiles	IC50
COc1cccc(/C=C2\CCC/C(=C\c3cccc(OC)c3OC)C2=O)c1OC	> 30 µM

Okay, next one:
[Q] Requested read-out: IC50. Entry: COc1cc(/C=C/C(=O)CC(=O)/C=C/c2ccc(O)c(OC)c2)ccc1O
[A] > 30 µM

src = paper PMC7956430
